Reference for the values: PubChem BioAssay

# composite z-score values compiled below
assay_comment: small-molecule microarray binders of probe aNog, primary screen, biochemical, biotinylated probe, 635/667 nm fluorescence (AID 1115);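 note: probe is biotinylated aNog protein used at 0.15 µg/mL for 1 h at 4 C; z-score combines 667 nm fluorescence of each spot with its signal to noise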
applied_conditions: higher = more signal
Give the figure only, with no unit attached.

Previously resolved entries follow.
{"compound": "[N-]=[N+]=Nc1ccccc1C[C@@]1(C(=O)NCCN2CCOCC2)N=C(c2ccc(OCCCO)cc2)O[C@@H]1c1ccccc1", "measure_name": "composite z-score", "measured_number": -0.462}
{"compound": "COC(=O)[C@@]1(Cc2ccccc2)[C@H]2c3cc(C(=O)N4CCCC4)n(Cc4nc5ccccc5[nH]4)c3C[C@H]2CN1C(=O)c1ccccc1", "measure_name": "composite z-score", "measured_number": 2.15}
{"compound": "COC(=O)[C@@]1(Cc2ccc(OC)cc2)[C@H]2c3cc(C(=O)N4CCCC4)n(Cc4ccc(OC)c(OC)c4)c3C[C@H]2CN1C(=O)c1ccccc1", "measure_name": "composite z-score", "measured_number": 0.162}
{"compound": "O=C(NCc1ccccc1)[C@@]1(Cc2ccccc2)N=C(c2ccc(OCCCO)cc2)O[C@H]1c1ccccc1", "measure_name": "composite z-score", "measured_number": 1.36}
{"compound": "CC(=O)N1Cc2ccccc2C[C@@]2(COC(c3ccc(OCCCO)cc3)=N2)C1=O", "measure_name": "composite z-score", "measured_number": 0.114}
{"compound": "O=C1NC(=O)C2C1C=CC(C(O)c1cccc3ccccc13)N2Nc1ccccn1 (centres undefined)", "measure_name": "composite z-score", "measured_number": 0.116}

Ask | May I ask what composite z-score has been recorded for COC(=O)[C@@]1(Cc2ccc(OC)cc2)[C@H]2c3cc(C(=O)N4CCCC4)n(Cc4ccccc4)c3C[C@H]2CN1C(=O)c1ccccc1 ?
Reply | 2.87

Ask | May I ask what composite z-score has been recorded for COc1ccc([Si](C)(C)[C@H]2[C@H](CCO)O[C@@]3(C(=O)N(Cc4ccc(N5C(=O)COc6ccccc65)cc4)c4ccccc43)[C@@H]2C)cc1 ?
Reply | 0.201

Ask | May I ask what composite z-score has been recorded for O=C1O[C@H](c2ccccc2)[C@H](c2ccccc2)N2[C@H]1[C@@H](C(=O)N1CCN(c3ncccn3)CC1)[C@]1(C(=O)Nc3ccc(C#CC4=CCCCC4)cc31)[C@H]2c1ccc(O)cc1 ?
Reply | 0.113

Ask | May I ask what composite z-score has been recorded for COCCCNC(=O)C1N=C(c2ccc(OCCCO)cc2)N(c2ccccc2)O1 (centres undefined) ?
Reply | 0.752

Ask | May I ask what composite z-score has been recorded for [N-]=[N+]=NCc1ccccc1[C@@H]1OC(c2ccc(OCCCO)cc2)=N[C@]1(Cc1ccccc1N=[N+]=[N-])C(=O)N1CCOCC1 ?
Reply | 2.35

Ask | May I ask what composite z-score has been recorded for COc1ccc([Si](C)(C)[C@H]2[C@H](CC(=O)N3Cc4ccccc4C[C@H]3CO)O[C@@]3(C(=O)N(Cc4ccc(N5CCC5=O)cc4)c4ccccc43)[C@@H]2C)cc1 ?
Reply | 1.65

Ask | May I ask what composite z-score has been recorded for COc1ccc([Si](C)(C)[C@@H]2[C@@H](CCO)O[C@]3(C(=O)N(Cc4ccc(N5C(=O)COc6ccccc65)cc4)c4ccccc43)[C@H]2C)cc1 ?
Reply | -0.394

Ask | May I ask what composite z-score has been recorded for C=CCC(OC(C)=O)[C@@H]1[C@@H](N(Cc2ccc(-c3cccc(C(F)(F)F)c3)o2)C(=O)c2ccc(-c3ccccc3)cc2)c2cc(OCCCO)ccc2N1C(=O)c1ccc(-c2ccccc2)cc1 (some centres undefined) ?
Reply | 0.26

* * *

Test system: XIP peptide (Xip251-270)
assay_comment: small-molecule binders of XIP peptide, primary screen, biochemical, small-molecule microarray, fluorescence 635/667 nm, 0.5 µg/mL protein (AID 1183)
applied_conditions: small-molecule microarray binding, fluorescence 635 nm; higher = more signal
measure_name: composite z-score
Give the figure only, with no unit attached.

Previously resolved entries follow.
{"compound": "CN1C(=O)C2C=CC(C(O)c3ccc(I)cc3)N(N3CCCCC3)C2C1=O (stereo not given)", "measure_name": "composite z-score", "measured_number": 0.771}
{"compound": "C=C(COC)/C(=C/C[C@@H](OC(C)=O)c1ccc(CO)o1)c1cnc2ccccc2c1", "measure_name": "composite z-score", "measured_number": 0.797}
{"compound": "COc1ccc(C(O)C2C=CC3C(=O)N(C)C(=O)C3N2N2CCCCC2)c2ccccc12 (stereo not given)", "measure_name": "composite z-score", "measured_number": 0.637}
{"compound": "C=CCNC(=O)[C@@H]1[C@H]2C(=O)O[C@H](c3ccccc3)[C@H](c3ccccc3)N2[C@H](c2ccccc2OCCO)[C@@]12C(=O)N(C(=O)OCCOC)c1ccc(C#CCNC(N)=O)cc12", "measure_name": "composite z-score", "measured_number": 0.66}
{"compound": "O=C1[C@H]2C=C(Br)[C@H](C[C@@H]2OCCCCO)[C@@]12CO2", "measure_name": "composite z-score", "measured_number": 0.141}
{"compound": "C=C(COC)/C(=C/C[C@@H](OC(C)=O)c1ccc(OCCO)cc1)c1cc(C(=O)OC)ccc1OC", "measure_name": "composite z-score", "measured_number": 0.762}

Ask | Notebook entry, XIP peptide (Xip251-270) assay: composite z-score of COC(=O)[C@@]1(Cc2ccc(OC)cc2)[C@H]2c3cc(C(=O)N4CCCC4)n(Cc4ccsc4Br)c3C[C@H]2CN1C(=O)c1ccccc1 = ?
Reply | 0.75

Ask | Notebook entry, XIP peptide (Xip251-270) assay: composite z-score of CN(C)CCCNC(=O)[C@@]1(c2ccc([N+](=O)[O-])cc2)CC(=O)N(C2CCCCC2)[C@@H]1c1ccc(CO)cc1I = ?
Reply | 0.248

Ask | Notebook entry, XIP peptide (Xip251-270) assay: composite z-score of C[C@@H]1ON(c2cccc(C(=O)OC(C)(C)C)c2)[C@H](c2ccc(Br)cc2)[C@H]1C(=O)N1C(=O)OC[C@H]1Cc1ccccc1 = ?
Reply | 0.615

* * *

Test system: Wnt5a (protein binding on small-molecule microarray)
assay_comment: Wnt5a binders on small-molecule microarray, primary screen, biophysical, 635/667 nm fluorescence (AID 1142);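 note: fluorescence read at 667 nm with signal to noise per printed feature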
applied_conditions: 635 nm fluorescence, higher = more signal
# composite z-score values compiled below
Give the figure only, with no unit attached.

Previously resolved entries follow.
{"compound": "CC(C)[C@@H](CO)NC(=O)[C@H]1[C@@H](c2ccccc2)N(c2ccccc2)O[C@@H]1C", "measurement_target": "Wnt5a (protein binding on small-molecule microarray)", "measure_name": "composite z-score", "measured_number": -0.106}
{"compound": "COCCOC(=O)N1C(=O)[C@@]2(c3cc(C#Cc4ccc(OC)cc4)ccc31)[C@H](C(N)=O)[C@H]1C(=O)O[C@H](c3ccccc3)[C@H](c3ccccc3)N1[C@@H]2c1ccccc1OCCO", "measurement_target": "Wnt5a (protein binding on small-molecule microarray)", "measure_name": "composite z-score", "measured_number": 0.753}
{"compound": "COc1cc(CO)cc(I)c1O[C@H]1C=C(C(=O)NCCO)C[C@@H](N(CCN2CCOCC2)C(=O)C2CCOC2)[C@@H]1O (some centres not stated)", "measurement_target": "Wnt5a (protein binding on small-molecule microarray)", "measure_name": "composite z-score", "measured_number": -0.31}
{"compound": "CN(C)C(=O)[C@]1(Cc2ccccc2N=[N+]=[N-])N=C(c2ccc(OCCCO)cc2)O[C@@H]1c1ccccc1", "measurement_target": "Wnt5a (protein binding on small-molecule microarray)", "measure_name": "composite z-score", "measured_number": 0.8}
{"compound": "COC(=O)c1c(CC[C@@H](CO)NC(=O)N2CCC[C@H]2Cn2cc(-c3ccccn3)nn2)oc(C(C)=O)c1C(=O)OC", "measurement_target": "Wnt5a (protein binding on small-molecule microarray)", "measure_name": "composite z-score", "measured_number": -0.249}
{"compound": "CCOC(=O)C1=CCC(c2ccccc2)N(S(=O)(=O)CC[Si](C)(C)C)C1 (configuration not stated)", "measurement_target": "Wnt5a (protein binding on small-molecule microarray)", "measure_name": "composite z-score", "measured_number": -0.386}

Next, consider the following compound.
Ask | May I ask what composite z-score has been recorded for COC(=O)[C@@]1(Cc2ccccc2)[C@H]2c3cc(C(=O)N4CCCC4)n(Cc4cccc5ccccc45)c3C[C@H]2CN1C(=O)c1ccccc1 ?
Reply | 1.67
